- assayTarget: Cel-EAT-2 and Cel-EAT-18c nAChR (Caenorhabditis elegans)
- Sequence (Q9U298 22-474): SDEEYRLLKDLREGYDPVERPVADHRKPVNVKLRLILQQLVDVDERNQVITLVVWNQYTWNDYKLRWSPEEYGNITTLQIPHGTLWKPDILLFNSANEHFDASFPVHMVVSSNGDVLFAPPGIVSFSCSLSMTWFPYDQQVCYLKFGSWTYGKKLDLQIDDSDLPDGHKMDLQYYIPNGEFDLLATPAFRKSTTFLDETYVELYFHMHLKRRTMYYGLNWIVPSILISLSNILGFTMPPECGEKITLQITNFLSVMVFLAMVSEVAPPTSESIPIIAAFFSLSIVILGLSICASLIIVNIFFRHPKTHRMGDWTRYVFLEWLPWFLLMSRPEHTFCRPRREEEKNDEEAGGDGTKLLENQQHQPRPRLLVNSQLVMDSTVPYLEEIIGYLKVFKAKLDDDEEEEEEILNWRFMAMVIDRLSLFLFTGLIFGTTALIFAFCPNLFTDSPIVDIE
- procedureDetails: Two-electrode voltage-clamp of Cel-EAT-2 + Cel-EAT-18c nAChR expressed in Xenopus oocytes
- Type: cell-based
- testConditions: agonist 100 μM; mean±SEM, n≥6
measuredAttribute: current response normalized to the control 100 μM ACh current (Imax)

q: Item under review: CCCC(=O)OCC[N+](C)(C)C . Reported current response normalized to the control 100 μM ACh current (Imax)?
a: 50.0±5.0%

q: Entry CN1CCCN=C1/C=C/c1cccc(O)c1 please
a: 11 ± 1.3%

q: Again, but for CC(=O)OC(C)C[N+](C)(C)C (stereo not drawn)
a: 73 ± 5.3%
